Each record here notes measured inhibition.
Assay: Inhibition of human full-length N-terminal GST-fused SRC (1 to 536 (end)residues) expressed in baculovirus expression system at 20 uM measured after 1 hr in presence of peptide substrate and ATP by off-chip mobility shift assay relative to control
QUANTITY NAME: inhibition (%)

| STRUCTURE | RESULT VALUE |
| --- | --- |
| Cc1ccc(NC(=O)CN2C(=O)/C(=N\NC(=O)c3cc(Br)ccc3O)c3ccc(Cl)cc32)cc1 | 64.3 |
| O=C(CN1C(=O)/C(=N\NC(=O)c2cc(Br)ccc2O)c2c(Br)cccc21)Nc1ccc([N+](=O)[O-])cc1 | 50.7 |
| Cc1ccc(NC(=O)CN2C(=O)/C(=N\NC(=O)c3cc(Br)ccc3O)c3ccc(Br)cc32)cc1 | 56.5 |
| Cc1ccc(NC(=O)CN2C(=O)/C(=N\NC(=O)c3cc(Br)ccc3O)c3ccccc32)cc1 | 49.3 |

* * *

Target: Tyrosine-protein kinase Lck (Homo sapiens)
Assay: Inhibition of human full-length N-terminal GST-fused LCK (1 to 509 (end)residues) expressed in baculovirus expression system at 20 uM measured after 1 hr in presence of peptide substrate and ATP by off-chip mobility shift assay relative to control
inhibition listing for selected molecules.
QUANTITY NAME: inhibition (%)

| STRUCTURE | QUANTITY NAME | RESULT VALUE |
| --- | --- | --- |
| O=C(CN1C(=O)/C(=N\NC(=O)c2cc(Br)ccc2O)c2c(Br)cccc21)Nc1ccc([N+](=O)[O-])cc1 | inhibition | 66.8 |
| Cc1ccc(NC(=O)CN2C(=O)/C(=N\NC(=O)c3cc(Br)ccc3O)c3ccccc32)cc1 | inhibition | 84.8 |
| Cc1ccc(NC(=O)CN2C(=O)/C(=N\NC(=O)c3cc(Br)ccc3O)c3ccc(Br)cc32)cc1 | inhibition | 69.3 |
| Cc1ccc(NC(=O)CN2C(=O)/C(=N\NC(=O)c3cc(Br)ccc3O)c3ccc(Cl)cc32)cc1 | inhibition | 71.5 |

* * *

Target: Receptor-type tyrosine-protein kinase FLT3 (Homo sapiens) (UniProt P36888)
Sequence (P36888 whole entry, the tested form may be a part): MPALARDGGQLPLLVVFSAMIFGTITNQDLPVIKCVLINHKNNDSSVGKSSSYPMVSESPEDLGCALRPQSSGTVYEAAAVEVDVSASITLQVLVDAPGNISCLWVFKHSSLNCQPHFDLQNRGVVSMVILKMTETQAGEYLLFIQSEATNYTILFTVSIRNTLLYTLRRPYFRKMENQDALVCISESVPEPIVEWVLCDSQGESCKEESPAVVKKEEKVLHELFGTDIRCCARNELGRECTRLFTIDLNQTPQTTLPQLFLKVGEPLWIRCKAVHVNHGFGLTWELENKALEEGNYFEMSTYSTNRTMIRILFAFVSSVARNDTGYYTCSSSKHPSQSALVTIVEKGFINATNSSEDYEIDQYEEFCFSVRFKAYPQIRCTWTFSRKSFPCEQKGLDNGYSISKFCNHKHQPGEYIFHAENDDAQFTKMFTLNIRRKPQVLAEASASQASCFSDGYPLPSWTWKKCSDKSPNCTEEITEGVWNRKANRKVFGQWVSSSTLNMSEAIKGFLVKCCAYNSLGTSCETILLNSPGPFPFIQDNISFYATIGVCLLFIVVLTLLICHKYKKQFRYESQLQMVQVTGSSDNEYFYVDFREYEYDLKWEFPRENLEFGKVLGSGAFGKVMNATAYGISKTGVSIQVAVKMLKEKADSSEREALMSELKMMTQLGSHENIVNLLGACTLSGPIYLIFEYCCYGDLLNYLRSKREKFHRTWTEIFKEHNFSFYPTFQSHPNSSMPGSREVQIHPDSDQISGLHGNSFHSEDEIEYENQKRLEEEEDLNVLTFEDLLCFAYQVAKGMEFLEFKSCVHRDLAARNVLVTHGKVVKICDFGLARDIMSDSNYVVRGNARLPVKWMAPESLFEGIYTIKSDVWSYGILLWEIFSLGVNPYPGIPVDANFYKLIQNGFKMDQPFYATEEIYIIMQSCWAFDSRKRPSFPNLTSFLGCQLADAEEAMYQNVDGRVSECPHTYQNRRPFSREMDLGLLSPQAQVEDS
Assay: Inhibition of human N-terminal GST-fused FLT3 cytoplasmic domain (564 to 993 (end)residues) expressed in baculovirus expression system at 20 uM measured after 1 hr in presence of peptide substrate and ATP by off-chip mobility shift assay relative to control
A collection of molecules and their measured inhibition

| STRUCTURE | UNIT SYMBOL | inhibition |
| --- | --- | --- |
| Cc1ccc(NC(=O)CN2C(=O)/C(=N\NC(=O)c3cc(Br)ccc3O)c3ccccc32)cc1 | % | 89.7 |
| Cc1ccc(NC(=O)CN2C(=O)/C(=N\NC(=O)c3cc(Br)ccc3O)c3ccc(Br)cc32)cc1 | % | 72.6 |
| Cc1ccc(NC(=O)CN2C(=O)/C(=N\NC(=O)c3cc(Br)ccc3O)c3ccc(Cl)cc32)cc1 | % | 71.9 |
| O=C(CN1C(=O)/C(=N\NC(=O)c2cc(Br)ccc2O)c2c(Br)cccc21)Nc1ccc([N+](=O)[O-])cc1 | % | 55.8 |

* * *

Biological target: Ephrin type-B receptor 4 (Homo sapiens)
Assay: Inhibition of human N-terminal GST-fused EPHB4 cytoplasmic domain (577 to 987 (end)residues) expressed in baculovirus expression system at 20 uM measured after 1 hr in presence of peptide substrate and ATP by off-chip mobility shift assay relative to control

| STRUCTURE | inhibition |
| --- | --- |
| Cc1ccc(NC(=O)CN2C(=O)/C(=N\NC(=O)c3cc(Br)ccc3O)c3ccccc32)cc1 | 93.3% |
| O=C(CN1C(=O)/C(=N\NC(=O)c2cc(Br)ccc2O)c2c(Br)cccc21)Nc1ccc([N+](=O)[O-])cc1 | 70.8% |
| Cc1ccc(NC(=O)CN2C(=O)/C(=N\NC(=O)c3cc(Br)ccc3O)c3ccc(Br)cc32)cc1 | 62.5% |
| Cc1ccc(NC(=O)CN2C(=O)/C(=N\NC(=O)c3cc(Br)ccc3O)c3ccc(Cl)cc32)cc1 | 63% |

* * *

Below, each entry is listed alongside its reported inhibition.
Molecular target: Fibroblast growth factor receptor 1 (Homo sapiens) (UniProt P11362)
Sequence (P11362 22-822 limits assumed): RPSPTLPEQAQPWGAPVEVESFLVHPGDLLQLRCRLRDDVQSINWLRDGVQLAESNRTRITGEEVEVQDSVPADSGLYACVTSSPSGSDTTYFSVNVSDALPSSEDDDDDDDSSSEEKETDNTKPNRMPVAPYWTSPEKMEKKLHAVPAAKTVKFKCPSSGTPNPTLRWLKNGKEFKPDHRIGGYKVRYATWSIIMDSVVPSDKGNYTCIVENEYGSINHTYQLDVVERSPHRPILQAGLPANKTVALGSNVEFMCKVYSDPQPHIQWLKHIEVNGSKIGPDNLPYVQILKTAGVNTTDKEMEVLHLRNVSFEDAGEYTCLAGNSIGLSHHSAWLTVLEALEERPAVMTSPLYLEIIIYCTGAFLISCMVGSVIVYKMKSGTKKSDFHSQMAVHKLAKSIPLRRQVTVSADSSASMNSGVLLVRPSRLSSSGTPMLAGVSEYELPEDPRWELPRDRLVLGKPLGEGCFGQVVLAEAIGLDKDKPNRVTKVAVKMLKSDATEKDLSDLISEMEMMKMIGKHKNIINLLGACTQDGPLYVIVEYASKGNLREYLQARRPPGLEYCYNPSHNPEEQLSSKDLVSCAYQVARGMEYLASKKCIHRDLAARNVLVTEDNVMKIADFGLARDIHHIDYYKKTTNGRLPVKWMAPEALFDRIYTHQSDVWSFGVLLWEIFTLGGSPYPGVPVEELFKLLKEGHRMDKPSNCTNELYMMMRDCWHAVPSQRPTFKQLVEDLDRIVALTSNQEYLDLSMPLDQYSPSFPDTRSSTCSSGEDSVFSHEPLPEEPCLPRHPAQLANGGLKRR
Test: Inhibition of human N-terminal GST-fused FGFR1 cytoplasmic domain (398 to 822 (end)residues) expressed in baculovirus expression system at 20 uM measured after 1 hr in presence of peptide substrate and ATP by off-chip mobility shift assay relative to control
QUANTITY NAME: inhibition

| STRUCTURE | RESULT VALUE |
| --- | --- |
| Cc1ccc(NC(=O)CN2C(=O)/C(=N\NC(=O)c3cc(Br)ccc3O)c3ccc(Br)cc32)cc1 | 71.4% |
| Cc1ccc(NC(=O)CN2C(=O)/C(=N\NC(=O)c3cc(Br)ccc3O)c3ccc(Cl)cc32)cc1 | 71.8% |
| O=C(CN1C(=O)/C(=N\NC(=O)c2cc(Br)ccc2O)c2c(Br)cccc21)Nc1ccc([N+](=O)[O-])cc1 | 81.6% |
| Cc1ccc(NC(=O)CN2C(=O)/C(=N\NC(=O)c3cc(Br)ccc3O)c3ccccc32)cc1 | 91.7% |

* * *

Biological target: Platelet-derived growth factor receptor alpha (Homo sapiens) (UniProt P16234)
Sequence (P16234 whole entry, the tested form may be a part): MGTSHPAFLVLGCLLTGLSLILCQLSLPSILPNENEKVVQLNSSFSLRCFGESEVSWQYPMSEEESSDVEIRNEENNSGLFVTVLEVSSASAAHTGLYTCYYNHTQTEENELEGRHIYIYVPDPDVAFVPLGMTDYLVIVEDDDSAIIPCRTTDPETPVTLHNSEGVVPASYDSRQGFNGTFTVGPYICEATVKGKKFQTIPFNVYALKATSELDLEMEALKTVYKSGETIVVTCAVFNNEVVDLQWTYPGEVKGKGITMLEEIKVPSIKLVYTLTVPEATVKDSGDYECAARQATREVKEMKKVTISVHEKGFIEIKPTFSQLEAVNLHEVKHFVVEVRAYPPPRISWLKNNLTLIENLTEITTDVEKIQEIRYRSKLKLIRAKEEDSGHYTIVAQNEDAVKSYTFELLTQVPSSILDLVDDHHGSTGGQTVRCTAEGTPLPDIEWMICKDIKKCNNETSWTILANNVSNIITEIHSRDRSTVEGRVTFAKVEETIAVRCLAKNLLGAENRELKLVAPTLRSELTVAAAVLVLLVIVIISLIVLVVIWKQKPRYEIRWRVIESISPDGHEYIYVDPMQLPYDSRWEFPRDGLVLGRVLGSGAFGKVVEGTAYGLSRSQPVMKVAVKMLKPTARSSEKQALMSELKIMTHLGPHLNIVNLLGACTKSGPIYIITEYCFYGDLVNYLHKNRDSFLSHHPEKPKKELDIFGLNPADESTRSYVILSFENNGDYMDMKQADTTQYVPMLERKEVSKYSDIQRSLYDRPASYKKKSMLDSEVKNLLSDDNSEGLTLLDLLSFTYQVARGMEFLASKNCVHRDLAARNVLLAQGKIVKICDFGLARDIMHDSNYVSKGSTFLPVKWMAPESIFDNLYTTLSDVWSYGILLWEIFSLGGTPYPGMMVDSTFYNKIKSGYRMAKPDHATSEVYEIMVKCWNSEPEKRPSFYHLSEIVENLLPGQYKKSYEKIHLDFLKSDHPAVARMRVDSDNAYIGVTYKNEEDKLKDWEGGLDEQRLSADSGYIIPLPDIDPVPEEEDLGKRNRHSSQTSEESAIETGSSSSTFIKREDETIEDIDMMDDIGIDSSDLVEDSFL
Assay: Inhibition of human N-terminal GST-fused PDGFRalpha cytoplasmic domain (550 to 1089 (end)residues) expressed in baculovirus expression system at 20 uM measured after 1 hr in presence of peptide substrate and ATP by off-chip mobility shift assay relative to control
Reported inhibition values for the following compounds.
QUANTITY NAME: inhibition (%)

| STRUCTURE | RESULT VALUE |
| --- | --- |
| Cc1ccc(NC(=O)CN2C(=O)/C(=N\NC(=O)c3cc(Br)ccc3O)c3ccc(Br)cc32)cc1 | 56.7 |
| Cc1ccc(NC(=O)CN2C(=O)/C(=N\NC(=O)c3cc(Br)ccc3O)c3ccccc32)cc1 | 76.2 |
| O=C(CN1C(=O)/C(=N\NC(=O)c2cc(Br)ccc2O)c2c(Br)cccc21)Nc1ccc([N+](=O)[O-])cc1 | 63.3 |
| Cc1ccc(NC(=O)CN2C(=O)/C(=N\NC(=O)c3cc(Br)ccc3O)c3ccc(Cl)cc32)cc1 | 56.5 |

* * *

Biological target: UniProt Q02763
Sequence (Q02763 whole entry, the tested form may be a part): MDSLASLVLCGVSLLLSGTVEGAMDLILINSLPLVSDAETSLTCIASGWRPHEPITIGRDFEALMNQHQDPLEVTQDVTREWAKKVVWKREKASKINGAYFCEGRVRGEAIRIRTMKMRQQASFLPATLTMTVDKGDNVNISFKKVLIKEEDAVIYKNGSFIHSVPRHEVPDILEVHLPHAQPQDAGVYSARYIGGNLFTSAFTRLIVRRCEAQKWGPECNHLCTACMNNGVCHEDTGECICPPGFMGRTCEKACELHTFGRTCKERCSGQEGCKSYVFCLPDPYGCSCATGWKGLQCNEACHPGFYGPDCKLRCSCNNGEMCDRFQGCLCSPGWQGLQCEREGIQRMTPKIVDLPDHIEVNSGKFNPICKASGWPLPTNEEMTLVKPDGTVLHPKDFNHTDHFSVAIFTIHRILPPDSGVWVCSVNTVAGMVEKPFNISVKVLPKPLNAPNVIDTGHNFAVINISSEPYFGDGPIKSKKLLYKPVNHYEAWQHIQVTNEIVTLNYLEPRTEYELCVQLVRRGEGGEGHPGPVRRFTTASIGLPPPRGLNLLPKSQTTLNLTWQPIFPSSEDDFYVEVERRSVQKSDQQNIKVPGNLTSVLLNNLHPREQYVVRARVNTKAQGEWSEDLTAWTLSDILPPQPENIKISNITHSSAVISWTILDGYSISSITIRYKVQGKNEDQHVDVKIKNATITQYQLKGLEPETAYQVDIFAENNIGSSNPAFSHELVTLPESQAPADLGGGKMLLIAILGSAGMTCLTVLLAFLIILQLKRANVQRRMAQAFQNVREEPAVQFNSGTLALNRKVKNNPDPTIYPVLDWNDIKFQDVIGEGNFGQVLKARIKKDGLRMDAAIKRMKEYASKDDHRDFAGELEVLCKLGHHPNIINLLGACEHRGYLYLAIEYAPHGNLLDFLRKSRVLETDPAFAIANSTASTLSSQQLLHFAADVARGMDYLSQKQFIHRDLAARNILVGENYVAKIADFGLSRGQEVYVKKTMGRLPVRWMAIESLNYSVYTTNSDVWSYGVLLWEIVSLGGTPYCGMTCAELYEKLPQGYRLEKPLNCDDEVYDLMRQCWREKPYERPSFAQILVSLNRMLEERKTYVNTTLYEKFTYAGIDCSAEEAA
Test: Inhibition of human N-terminal GST-fused TIE2 cytoplasmic domain (771 to 1124 (end)residues) expressed in baculovirus expression system at 20 uM measured after 1 hr in presence of peptide substrate and ATP by off-chip mobility shift assay relative to control

| STRUCTURE | inhibition (%) |
| --- | --- |
| Cc1ccc(NC(=O)CN2C(=O)/C(=N\NC(=O)c3cc(Br)ccc3O)c3ccc(Cl)cc32)cc1 | 76.7 |
| Cc1ccc(NC(=O)CN2C(=O)/C(=N\NC(=O)c3cc(Br)ccc3O)c3ccccc32)cc1 | 93.1 |
| Cc1ccc(NC(=O)CN2C(=O)/C(=N\NC(=O)c3cc(Br)ccc3O)c3ccc(Br)cc32)cc1 | 76.7 |
| O=C(CN1C(=O)/C(=N\NC(=O)c2cc(Br)ccc2O)c2c(Br)cccc21)Nc1ccc([N+](=O)[O-])cc1 | 89.5 |
